# tested-system: Spike protein of authentic SARS-CoV-2 (Munich isolate 984) (SARS-CoV-2, UniProt P0DTC2 14-1273)
# method-notes: cell-based or functional assay
# Design: unit not given beside the values
measured-quantity: IC90 Neutralizing Assay

query: Identify measured IC90 Neutralizing Assay associated with HL CV07-283 (antibody, V domains shown) VH: QVQLVQSGAEVKKPGASAKVSCKASGYTFTGYYIHWVRQAPGQGLEWMGLINPISGGTNYAQKFQDRVTMTRDTSISTAYMELSRLRSDDTAVYYCVRGPFYYDSSGPLGGMDVWGQGTTVTVSS VL: QSALTQPASVSGSPGQSITISCTGTSGDVGGYNYVSWYQQHPGKAPKLMIYEVSNRPSGVSNRFSGSKSGNTASLTISGLQAEDEADYYCSSYTSSSTYVFGTGTKVTVLG
result: > 500
